Biological target: T1, canine OX40L, full length membrane form, expressed on HEK293 cells (canine)
T1 chain: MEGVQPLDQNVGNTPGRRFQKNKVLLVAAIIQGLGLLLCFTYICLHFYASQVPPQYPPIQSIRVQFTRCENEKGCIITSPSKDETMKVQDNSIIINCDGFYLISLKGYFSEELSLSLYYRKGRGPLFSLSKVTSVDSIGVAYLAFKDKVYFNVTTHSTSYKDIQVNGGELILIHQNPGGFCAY
Assay: cell-based or functional assay
Recorded % Signal Inhibition Rep1 for the following binders
State the answer as a number, implicitly in %.

Study these solved cases before continuing.
BINDER	DATA_VALUE
PMX065 (antibody, V domains shown, also called PMX65) VH: EVQLVESGGDLVKPGGSLRLSCVASGFTFNNYEMYWVRQAPGKGLEWVARIYESGSTTFSAEAVTGRFTISRDNAKNMVYLQMNSLRAEDTAVYYCASASSSSWRFDYWGQGTLVTVSS VL: SYVLTQLPSVSVTLGQTARITCGGDSIGRKNVCWFQQRLGQAPELIIYDDRSRPSGIPERFSGANSGNTATLTISGALAEDEADYYCQVWDSSTGVFGGGTHLTVL	62.7
PMX050 (antibody, V domains shown, also called PMX50) VH: EVQLVESGGDLVKPEGSLRLSCVVSGFTFTTYDMSWVRQAPGKGLQWVAYITNDGRITTYTDAVKGRFTISRDNAKNTLYLQMNSLRTVDTGVYYCARHSSSWSRGRFGLDYWGHGTSVFVSS VL: SYVLTQLPSKNVTLKQPAHITCGGDNIGRKGVHWYQQKLGQAPVLIIYYDSSRPTGIPERFSGANSGNTATLTISGALAEDEADYYCQVWDNSASVFGGGTHLTVL	68.7
PMX083 (antibody, V domains shown, also called PMX83) VH: EVQLVESGGDLVKPGGSLRLSCVASGFTFRTYHMSWVRQAPGKGLQWVAYITRDGISTTYTDAVKGRFTISRDNAKNTLFLQMNSLRADDTAVYYCASDLVLVLGAPFYWGQGTLVTVSS VL: SYELTQPPSVNVTLGETAHITCGGDSIGRKYVQWIQQNPGQAPVVIIYKDSNRPTGIPERFSGANSGNTATLTISGALAEDEADYYCQVGDSGTKAVFGEGTQLTVL	66
PMX092 (antibody, V domains shown) VH: EVQLVESGGDLVKPGGSLRLSCVASGFTFNNLHMSWVRQAPGKGLQWVAFINSDGRNRNYADAVKGRVTISRDYAKNTLYLQINSLRAEDTAVYYCTGGSIWTHFDYWGQGTLVTVSS VL: SYVLTQLPSMSVTLRQTARITCEGDIIASKRVYWYQQKLGQVPVLFIYADNSRPSGIPERFSGASSGNTATLTISGALAEDEADYYCQVWDSNANSVFGGGTHLTVL	33.3

Req: Looking for the measured % Signal Inhibition Rep1 of PMX061 (antibody, V domains shown, also called PMX61) VH: EVQLVESGGDLVKPGGSLRLSCVASGFTFSSFPMSWVRQAPGKGLQWVAYINSGGSSTSYADVVKGRFTISRDNAKNTLYLQMNSLRADDTAVYYCARTFPTVATDNWFYYWGQGTLVTVSS VL: SYVLTQLPSKNVTLKQAAHITCGGDNIGSKSVHWYQQKLGQAPVLIIYYDSSRPTGIPERFSGANSGNTATLTISGALAEDEADYYCQVWDSSAKWVFGEGTQLTVL , can you help?
Resp: 51
